Cited source for all entries: patent US12344587B2

- System: retinoic acid response element (RARE)
- assay-method-text: X-Gal RA based reporter assay (genomic activity)
- Assay type: cell-based
- measurement-parameters: Sil-15 reporter cells, overnight incubation; read-out: Genomic Activity (X-Gal RA Based Reporter Assay) Potency (EC50)
pEC50: −log10 of the molar value.
Recorded pEC50 for the following compounds
measured-quantity: pEC50

[[record]]
compound = "COc1cc2c(cc1C#Cc1ccc(C(=O)O)cc1F)C(C)(C)CCC2(C)C"
result = 8.27

[[record]]
compound = "Cc1cc2c(cc1C#Cc1ncc(C(=O)O)cn1)C(C)(C)CCC2(C)C"
result = 9.08

[[record]]
compound = "CC1(C)CCC(C)(C)c2cc(C#Cc3cc(F)c(C(=O)O)c(F)c3)ccc21"
result = 10.82

[[record]]
compound = "CC1=C(/C=C/C(C)=C/C=C/C(C)=C/C(=O)O)C(C)(C)CCC1 [ATRA, All-trans-retinoic acid, reference compound]"
result = 8.98

[[record]]
compound = "CC1(C)CCC(C)(C)c2nc(C#Cc3ccc(C(=O)O)cc3F)cnc21"
result = 9.42

[[record]]
compound = "CC1(C)CCC(C)(C)c2cc(C#Cc3ccc(C(=O)O)cc3Cl)ccc21"
result = 7.87

[[record]]
compound = "CC1(C)CCC(C)(C)c2cc(C#Cc3cnc(C(=O)O)cn3)ccc21"
result = 8.41

[[record]]
compound = "CC1(C)CCC(C)(C)c2cc(C#Cc3ccc(C(=O)O)cc3F)ccc21"
result = 10.24

[[record]]
compound = "Cc1cc2c(cc1C#Cc1ccc(C(=O)O)c(F)c1)C(C)(C)CCC2(C)C"
result = 9.87

[[record]]
compound = "COc1cc2c(cc1C#Cc1ccc(C(=O)O)cn1)C(C)(C)CCC2(C)C"
result = 8.50


====

Recorded Genomic Activity (X-Gal RA Based Reporter Assay) Efficacy (Emax) for the following molecules
- Tested on: retinoic acid response element (RARE)
- assay-method-text: X-Gal RA based reporter assay (genomic activity)
- Assay type: cell-based
- measurement-parameters: Sil-15 reporter cells, overnight incubation
measured-quantity: Genomic Activity (X-Gal RA Based Reporter Assay) Efficacy (Emax)

[[record]]
molecule = "CC1(C)CCC(C)(C)c2nc(C#Cc3ccc(C(=O)O)cc3F)cnc21 [DC712]"
test_target = "retinoic acid response element (RARE)"
result = 179.7

[[record]]
molecule = "COc1cc2c(cc1C#Cc1ccc(C(=O)O)cc1F)C(C)(C)CCC2(C)C [DC564]"
test_target = "retinoic acid response element (RARE)"
result = 177.1

[[record]]
molecule = "CC1=C(/C=C/C(C)=C/C=C/C(C)=C/C(=O)O)C(C)(C)CCC1 [ATRA, All-trans-retinoic acid, reference compound]"
test_target = "retinoic acid response element (RARE)"
result = 170.1

[[record]]
molecule = "Cc1cc2c(cc1C#Cc1ccc(C(=O)O)cc1F)C(C)(C)CCC2(C)C [DC559]"
test_target = "retinoic acid response element (RARE)"
result = 139.8


====

- System: retinoic acid response element (RARE)
- assay-method-text: X-Gal RA based reporter assay (genomic activity)
- Type: cell-based
- measurement-parameters: Sil-15 reporter cells, overnight incubation
Rule: Genomic Activity (X-Gal RA Based Reporter Assay) Efficacy (Emax) below 200 gives true (1), anything at or above gives false (0).

[[record]]
compound = "CC1(C)CCC(C)(C)c2cc(C#Cc3cc(F)c(C(=O)O)c(F)c3)ccc21"
assigned_class = "true (1)"

[[record]]
compound = "CC1(C)CCC(C)(C)c2cc(C#Cc3ccc(C(=O)O)cc3Cl)ccc21"
assigned_class = "true (1)"

[[record]]
compound = "Cc1cc2c(cc1C#Cc1ccc(C(=O)O)c(F)c1)C(C)(C)CCC2(C)C"
assigned_class = "true (1)"

[[record]]
compound = "CC1(C)CCC(C)(C)c2cc(C#Cc3ccc(C(=O)O)cc3)ccc21 [EC23, reference compound]"
assigned_class = "true (1)"

[[record]]
compound = "COc1cc2c(cc1C#Cc1ncc(C(=O)O)cn1)C(C)(C)CCC2(C)C"
assigned_class = "false (0)"

[[record]]
compound = "CC1(C)CCC(C)(C)c2cc(C#Cc3ccc(C(=O)O)cc3F)ccc21"
assigned_class = "true (1)"

[[record]]
compound = "CC1(C)CCC(C)(C)c2cc(C#Cc3ccc(C(=O)O)nc3)ccc21"
assigned_class = "false (0)"

[[record]]
compound = "CC1(C)CCC(C)(C)c2cc(C#Cc3ccc(C(=O)O)c(F)c3)ccc21"
assigned_class = "true (1)"

[[record]]
compound = "COc1cc2c(cc1C#Cc1cc(F)c(C(=O)O)c(F)c1)C(C)(C)CCC2(C)C"
assigned_class = "true (1)"

[[record]]
compound = "CC1(C)CCC(C)(C)c2cc(C#Cc3cnc(C(=O)O)cn3)ccc21"
assigned_class = "true (1)"

[[record]]
compound = "Cc1cc2c(cc1C#Cc1ncc(C(=O)O)cn1)C(C)(C)CCC2(C)C"
assigned_class = "true (1)"

[[record]]
compound = "CC1(C)CCC(C)(C)c2cc(C#Cc3ccc(C(=O)O)cn3)ccc21"
assigned_class = "false (0)"

[[record]]
compound = "COc1cc2c(cc1C#Cc1ccc(C(=O)O)cn1)C(C)(C)CCC2(C)C"
assigned_class = "true (1)"

[[record]]
compound = "CC1(C)CCC(C)(C)c2nc(C#Cc3ccc(C(=O)O)cc3)cnc21"
assigned_class = "true (1)"

[[record]]
compound = "Cc1cc2c(cc1C#Cc1ccc(C(=O)O)cn1)C(C)(C)CCC2(C)C"
assigned_class = "true (1)"

